# Tested on: 855422-203-R-J1-PDC complex spheroid viability
# test_summary: Anticancer human tumor 855422-203-R-J1-PDC patient-derived bladder carcinoma cell line growth inhibition [POLQ]
# assay_setup: second compound 1 µM; first compound 0.00316 µM; hits give low values
Quick list: viability, T/C per entry.
Record the value in %, omitting the unit from your answer.

Recorded results for 2 compounds are shown here.
CCc1c2c(nc3ccc(O)cc13)-c1cc3c(c(=O)n1C2)COC(=O)[C@]3(O)CC + COC1C(OC(N)=O)C(O)C(Oc2ccc3c(O)c(NC(=O)c4ccc(O)c(CC=C(C)C)c4)c(=O)oc3c2C)OC1(C)C	33.4
C=CCn1c(=O)c2cnc(Nc3ccc(N4CCN(C)CC4)cc3)nc2n1-c1cccc(C(C)(C)O)n1 + COC1C(OC(N)=O)C(O)C(Oc2ccc3c(O)c(NC(=O)c4ccc(O)c(CC=C(C)C)c4)c(=O)oc3c2C)OC1(C)C	91.5

Any idea what viability, T/C was measured for C=CCn1c(=O)c2cnc(Nc3ccc(N4CCN(C)CC4)cc3)nc2n1-c1cccc(C(C)(C)O)n1 + Nc1ccc(C#CCN(C(=O)Cc2ncc(C(F)(F)F)cc2C(F)(F)F)c2ccc(F)cc2)nn1 ?
94.4

* * *

# System: 855422-203-R-J1-PDC complex spheroid viability
# test_summary: Anticancer human tumor 855422-203-R-J1-PDC cell line growth inhibition [POLQ];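 further: spheroids exposed to compounds for seven days before readout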
# assay_setup: second compound 0.316 µM; first compound 0.316 µM; hits give low values
property: viability, T/C (%)
Record the value in %, omitting the unit from your answer.

Recorded results for 2 compounds are shown here.
COc1cc(C2c3cc4c(cc3C(OC3OC5COC(C)OC5C(O)C3O)C3COC(=O)C23)OCO4)cc(OC)c1O (stereo not drawn) + Cc1cccc(N(C)C(=O)C2C(O)CCN2c2nc(C)cc(C(F)(F)F)c2C#N)c1	25.9
C#Cc1c(F)ccc2cc(O)cc(-c3ncc4c(N5CC6CCC(C5)N6)nc(OCC56CCCN5CC(F)C6)nc4c3F)c12 (stereo not drawn) + Nc1ccc(C#CCN(C(=O)Cc2ncc(C(F)(F)F)cc2C(F)(F)F)c2ccc(F)cc2)nn1	124

--- query ---
Any idea what viability, T/C was measured for CCc1cc2c(N3CCc4c(cc(Cn5ccnc5)cc4-c4cn(C)nc4C(F)(F)F)C3=O)ccnc2c(OC)n1 + Cc1cccc(N(C)C(=O)C2C(O)CCN2c2nc(C)cc(C(F)(F)F)c2C#N)c1 ?
107

* * *

# Test system: 855422-203-R-J1-PDC complex spheroid viability
# test_summary: Anticancer human tumor 855422-203-R-J1-PDC cell line growth inhibition [POLQ];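 further: spheroids exposed to compounds for seven days before readout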
# assay_setup: second compound 3.16 µM; first compound 0.1 µM; hits give low values
Quick list: viability, T/C per entry.
Record the value in %, omitting the unit from your answer.

Recorded results for 3 molecules are shown here.
O=c1[nH]cc(F)c(=O)[nH]1 + COC1C(OC(N)=O)C(O)C(Oc2ccc3c(O)c(NC(=O)c4ccc(O)c(CC=C(C)C)c4)c(=O)oc3c2C)OC1(C)C	93.4
C=CC(=O)N1CCN(c2nc(=O)n(-c3c(C)ccnc3C(C)C)c3nc(-c4c(O)cccc4F)c(F)cc23)C(C)C1 (stereo unspecified) + Cc1cccc(N(C)C(=O)C2C(O)CCN2c2nc(C)cc(C(F)(F)F)c2C#N)c1	96
C=CC(=O)N1CCN(c2nc(=O)n(-c3c(C)ccnc3C(C)C)c3nc(-c4c(O)cccc4F)c(F)cc23)C(C)C1 (stereo unspecified) + Nc1ccc(C#CCN(C(=O)Cc2ncc(C(F)(F)F)cc2C(F)(F)F)c2ccc(F)cc2)nn1	121

Any idea what viability, T/C was measured for CCc1cc2c(N3CCc4c(cc(Cn5ccnc5)cc4-c4cn(C)nc4C(F)(F)F)C3=O)ccnc2c(OC)n1 + COC1C(OC(N)=O)C(O)C(Oc2ccc3c(O)c(NC(=O)c4ccc(O)c(CC=C(C)C)c4)c(=O)oc3c2C)OC1(C)C ?
90

Any idea what viability, T/C was measured for CCCS(=O)(=O)Nc1ccc(F)c(C(=O)c2c[nH]c3ncc(-c4ccc(Cl)cc4)cc23)c1F + Cc1cccc(N(C)C(=O)C2C(O)CCN2c2nc(C)cc(C(F)(F)F)c2C#N)c1 ?
133
